- procedure.text: Mouse pharmacokinetics, single dose
- Format: in vivo, male C57BL/6 mice
- condition.info: male, C57BL/6, mouse, brain and plasma, po, 10 mg/kg, male C57BL/6 mice, oral dose 10 mg/kg, based on AUC; read-out: Brain/Plasma Ratio
measured.parameter: Kp
Enter a number only.

1) Nc1ncc(-c2cn(C34CC(N5CCOCC5)(C3)C4)c([C@@H](O)C(F)(F)F)n2)cc1OC(F)(F)F [Compound 16, reference compound]
0.21
2) Nc1ncc(-c2cn(C34CC(C3)C4)c([C@@H](O)C(F)(F)F)n2)cc1OC(F)(F)F [Compound 13, reference compound]
2.97
3) Nc1ncc(-c2cn(C34CC(N5CCC(F)(F)CC5)(C3)C4)c([C@H](O)C(F)(F)F)n2)cc1OC(F)(F)F (single isomer, unassigned)
0.7

*Q* Would you mind telling me what Kp value was observed for CC(C)[C@H](O)c1nc(-c2cnc(N)c(C(F)(F)F)c2)cn1C12CC(F)(C1)C2 (single isomer, unassigned) ?
*A* 1.72

*Q* Would you mind telling me what Kp value was observed for CC(C)[C@H](O)c1nc(-c2cnc(N)c(OC(F)(F)F)c2)cn1C12CC(N3CCOCC3)(C1)C2 [Compound 15, reference compound] ?
*A* 0.24

*Q* Would you mind telling me what Kp value was observed for CC(C)[C@@H](O)c1nc(-c2cnc(N)c(OC(F)(F)F)c2)cn1C12CC(N3CCC(F)(F)CC3)(C1)C2 (single isomer, unassigned) ?
*A* 0.82

*Q* Would you mind telling me what Kp value was observed for Nc1ncc(-c2cn(C34CC(F)(C3)C4)c([C@@H](O)C(F)(F)F)n2)cc1OC(F)(F)F (single isomer, unassigned) ?
*A* 1.77

Values compiled from patent US11560366B2.
